Biological target: human sodium-glucose cotransporter 2 (SGLT2) (Homo sapiens)
Construct: expressed in transfected cells; host or cells: NIH3T3 (mouse fibroblast) cells expressing hSGLT2
Sequence (P31639 1-672): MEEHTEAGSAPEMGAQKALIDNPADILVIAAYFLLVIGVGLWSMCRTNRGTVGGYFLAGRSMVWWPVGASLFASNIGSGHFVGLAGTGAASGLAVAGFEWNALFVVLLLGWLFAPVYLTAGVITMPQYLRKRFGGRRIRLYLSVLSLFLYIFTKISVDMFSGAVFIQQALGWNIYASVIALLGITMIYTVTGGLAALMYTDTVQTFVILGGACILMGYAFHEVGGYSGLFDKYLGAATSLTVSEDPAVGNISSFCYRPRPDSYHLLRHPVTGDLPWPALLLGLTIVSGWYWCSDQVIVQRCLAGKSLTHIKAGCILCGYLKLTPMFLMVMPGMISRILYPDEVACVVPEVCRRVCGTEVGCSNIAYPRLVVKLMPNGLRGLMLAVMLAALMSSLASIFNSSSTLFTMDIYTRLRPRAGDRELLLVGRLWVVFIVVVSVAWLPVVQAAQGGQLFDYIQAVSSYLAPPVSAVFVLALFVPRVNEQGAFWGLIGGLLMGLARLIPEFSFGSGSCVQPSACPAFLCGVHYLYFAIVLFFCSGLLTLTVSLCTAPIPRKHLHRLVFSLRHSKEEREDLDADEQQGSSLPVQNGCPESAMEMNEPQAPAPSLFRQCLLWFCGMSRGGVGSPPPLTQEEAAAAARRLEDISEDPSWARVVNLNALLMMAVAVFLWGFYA
Test: In vitro SGLT2 inhibition, methyl-α-D-[U-14C]glucopyranoside uptake in NIH3T3-hSGLT2 cells
Assay type: cell-based
Settings: SGLT2, 10 nM; read-out: % Inhibition rate ± SD 10 nM
Protocol: Inhibition of the compounds of formula I against human sodium-glucose cotransporter 2 (SGLT2) was determined experimentally and the experimental procedures were carried out as reference^1. […] SGLT2 transports D-glucose at 1:1 sodium-glucose ratio, glucose is replaced by the non-metabolic and isotope labeled methyl-aD-[U-^14C] glucopyranoside and methyl-aD-glucopyranoside, and the amount of isotope transferred into the cells was determined. […] IC50 is calculated as follows: […]
OBSERVATION_TYPE: inhibition at 0.01 µM (%)

Please review the following examples before continuing.
COMPOUND	EXPERIMENTAL_SYSTEM	RESULT_UNIT	MEAS_VALUE
CC(=O)c1ccc(Cc2cc3c(cc2Cl)CO[C@]32O[C@H](C)[C@@H](O)[C@H](O)[C@H]2O)s1	human sodium-glucose cotransporter 2 (SGLT2) (Homo sapiens)	%	30.1
C[C@H]1O[C@]2(OCc3ccc(Cc4ccc(-c5ccc(F)cc5)s4)cc32)[C@H](O)[C@@H](O)[C@@H]1O	human sodium-glucose cotransporter 2 (SGLT2) (Homo sapiens)	%	29.4

P: CCc1ccc(Cc2ccc3c(c2)[C@]2(OC3)O[C@H](C)[C@@H](O)[C@H](O)[C@H]2O)s1
Q: CCOc1ccc(Cc2cc([C@@H]3O[C@H](CO)[C@@H](O)[C@H](O)[C@H]3O)ccc2Cl)cc1 [dapagliflozin, reference compound]
Problem: Which item exceeds the other in inhibition at 0.01 µM, P or Q ? Choose, then provide that item's label.
Solution: Q
(Q: 59.6%, P: 30.4%)
